B1: Barstar, P11540 (parent)
chain: MKKAVINGEQIRSISDLHQTLKKELALPEYYGENLDALWDCLTGWVEYPLVLEWRQFEQSKQLTENGAESVLQVFREAKAEGCDITIILS

Variants of: B1
run-parameters: Bacillus amyloliquefaciens; pH 7.5; 25 °C; Urea; fluorescence; HEPES; KCL / MgOAc 150000 / 15000; transition: 2; structure 1BTA; whole UniProt chain shown
measured-endpoint: unfolding free energy (kcal/mol)
Express the result in kcal/mol but write the number alone.

Please give the measured unfolding free energy for this variant: MKKAVINGEQIRSISDLHQTLKKELALPEYYGENLDALWDCLTGWVEYPLVLEWRQFEQSAQLTENGAESVLQVFREAKAAGCDITIILS [K61A E81A]
6.99

Please give the measured unfolding free energy for this variant: MKKAVINGEQIRSISDLHQTLKKELALPEYYGENLDALWDCLTGWVEYPLVLEWRQFEQSAQLTENGAESVLQVFREAKAEGCDITIILS [K61A]
4.25

Please give the measured unfolding free energy for this variant: MKKAVINGEQIRSISDLHQTLKKELALPEYYGENLDALWDCLTGWVEYPLVLEWRQFEQSKQLTENGAESVLQVFREAAAEGCDITIILS [K79A]
4.16

Please give the measured unfolding free energy for this variant: MKAAVINGEQIRSISDLHQTLKKELALPEYYGENLDALWDCLTGWVEYPLVLEWRQFEQSKQLTENGAESVLQVFREAKAEGCDITIILS [K3A]
5.27

Measured values drawn from FireProtDB (doi:10.1038/s41589-020-0556-3) for this set.
